Would you mind telling me the reported remaining activity at 10 µM of each entry?
- target under test: IKKα (Homo sapiens, UniProt O15111)
- Construct: purchased Eurofins Pharma Discovery Services (KinaseProfiler; Cerep BioPrint panel)
- Sequence (O15111 whole entry): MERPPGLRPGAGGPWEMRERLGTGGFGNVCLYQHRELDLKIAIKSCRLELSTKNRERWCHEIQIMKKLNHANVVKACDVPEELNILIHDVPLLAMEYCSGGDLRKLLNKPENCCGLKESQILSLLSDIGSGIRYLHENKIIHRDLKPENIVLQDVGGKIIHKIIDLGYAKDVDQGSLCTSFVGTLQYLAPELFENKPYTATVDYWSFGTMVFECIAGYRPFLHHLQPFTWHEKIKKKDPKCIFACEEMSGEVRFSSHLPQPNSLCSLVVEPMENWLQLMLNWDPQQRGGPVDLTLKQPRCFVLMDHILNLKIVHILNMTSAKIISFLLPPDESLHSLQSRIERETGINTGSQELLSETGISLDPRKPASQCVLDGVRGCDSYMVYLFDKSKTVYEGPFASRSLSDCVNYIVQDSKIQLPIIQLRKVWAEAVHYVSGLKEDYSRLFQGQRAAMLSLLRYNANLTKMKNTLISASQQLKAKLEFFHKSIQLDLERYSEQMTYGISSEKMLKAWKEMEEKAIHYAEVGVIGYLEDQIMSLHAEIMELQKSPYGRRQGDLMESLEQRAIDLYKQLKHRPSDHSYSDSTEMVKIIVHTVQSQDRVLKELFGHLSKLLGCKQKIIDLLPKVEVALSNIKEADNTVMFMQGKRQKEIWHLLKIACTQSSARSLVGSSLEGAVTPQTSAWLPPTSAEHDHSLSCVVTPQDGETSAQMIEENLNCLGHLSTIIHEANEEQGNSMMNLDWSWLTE
- procedure summary: kinase selectivity panel
- Type: biochemical
- assay context: read-out: percentage of control activity (POC), IKKα
- Method: Kinase selectivity was evaluated at Eurofins Pharma Discovery Services using a selection of 125 representative kinases tested at a concentration of 10 μM in duplicate (S3 Table). IC50 values for selected activities were further characterized at 9 duplicate concentrations. DNA-PK activity was determined at the SelectScreen® Biochemical kinase Profiling Service of Thermo Fisher Scientific.
Field format: number, assumed %, no unit text.

In: Field request: remaining activity at 10 µM | item: Cn1cc(-c2cccc(-c3nc(C(=O)NC4C5CC6CC4CC(O)(C6)C5)c(N)nc3N)c2)cn1 (centres unmarked)
Out: 100

In: What value of remaining activity at 10 µM has been reported for the following compound? `CS(=O)(=O)N1CCN(c2ccc(Nc3ncc(C(N)=O)c(NC4CC4)n3)cc2)CC1`
Out: 1

In: GET /values?readout=remaining activity at 10 µM&item= `Cc1ccc(C(=O)NCC2CC2)cc1-c1ccc2c(c1)NC(=O)C21CCCC1`
Out: 101

In: Any idea what remaining activity at 10 µM was measured for `CC(C)(C)N1CCC(c2cc(-c3ccc(F)cc3Cl)c3cc[n+]([O-])c(-c4c(Cl)cccc4Cl)c3n2)CC1` ?
Out: 102

In: Which value of remaining activity at 10 µM has been reported for COc1c(NC(=O)c2ccc(C)c(-c3nnc4c(NCC(C)(C)C)nccn34)c2)cc(C(C)(C)C)cc1NS(C)(=O)=O [compound 7, reference compound] in the records?
Out: 135

====

- target under test: PKCδ (Homo sapiens, UniProt Q05655)
- Construct: purchased Eurofins Pharma Discovery Services (KinaseProfiler; Cerep BioPrint panel)
- Sequence (Q05655 whole entry): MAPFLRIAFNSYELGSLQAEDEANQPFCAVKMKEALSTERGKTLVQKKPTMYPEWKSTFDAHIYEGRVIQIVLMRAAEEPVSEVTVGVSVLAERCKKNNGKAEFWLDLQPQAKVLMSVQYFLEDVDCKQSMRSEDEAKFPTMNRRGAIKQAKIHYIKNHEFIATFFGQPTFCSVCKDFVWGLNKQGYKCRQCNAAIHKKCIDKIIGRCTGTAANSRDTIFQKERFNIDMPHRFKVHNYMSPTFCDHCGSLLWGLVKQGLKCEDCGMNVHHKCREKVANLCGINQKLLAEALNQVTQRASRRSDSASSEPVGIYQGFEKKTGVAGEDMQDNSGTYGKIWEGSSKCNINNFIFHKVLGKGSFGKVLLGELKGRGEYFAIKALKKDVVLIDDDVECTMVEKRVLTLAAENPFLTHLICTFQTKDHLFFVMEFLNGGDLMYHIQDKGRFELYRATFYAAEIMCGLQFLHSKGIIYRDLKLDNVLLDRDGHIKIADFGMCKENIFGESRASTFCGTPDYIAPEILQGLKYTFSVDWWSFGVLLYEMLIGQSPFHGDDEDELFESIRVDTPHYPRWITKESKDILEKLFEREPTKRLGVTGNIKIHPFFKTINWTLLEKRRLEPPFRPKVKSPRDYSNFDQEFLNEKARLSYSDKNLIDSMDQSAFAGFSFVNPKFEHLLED
- procedure summary: kinase selectivity panel
- Type: biochemical
- assay context: read-out: percentage of control activity (POC), PKCδ
Task for the reader: assign each of the following molecules its reported remaining activity at 10 µM.
Use % as the unit, but write only the number.

In: Param readout= remaining activity at 10 µM; system= PKCδ (Homo sapiens, UniProt Q05655); entry= COc1c(NC(=O)c2ccc(C)c(-c3nnc4c(NCC(C)(C)C)nccn34)c2)cc(C(C)(C)C)cc1NS(C)(=O)=O [compound 7, reference compound] ; returns value.
Out: 107

In: remaining activity at 10 µM of Cn1cc(-c2cccc(-c3nc(C(=O)NC4C5CC6CC4CC(O)(C6)C5)c(N)nc3N)c2)cn1 (centres unmarked) on PKCδ (Homo sapiens, UniProt Q05655)?
Out: 97

In: Find remaining activity at 10 µM (PKCδ (Homo sapiens, UniProt Q05655)) for the entry `CS(=O)(=O)N1CCN(c2ccc(Nc3ncc(C(N)=O)c(NC4CC4)n3)cc2)CC1`
Out: 8

In: What is its remaining activity at 10 µM for PKCδ (Homo sapiens, UniProt Q05655)? Entry: `CC(C)(C)N1CCC(c2cc(-c3ccc(F)cc3Cl)c3cc[n+]([O-])c(-c4c(Cl)cccc4Cl)c3n2)CC1`
Out: 109

In: # value lookup — system PKCδ (Homo sapiens, UniProt Q05655), readout remaining activity at 10 µM, item `Cc1ccc(C(=O)NCC2CC2)cc1-c1ccc2c(c1)NC(=O)C21CCCC1`
Out: 104

====

- target under test: PI3K (p110b/p85a) (Homo sapiens)
- Construct: purchased Eurofins Pharma Discovery Services (KinaseProfiler; Cerep BioPrint panel)
- Sequence (P42338 whole entry): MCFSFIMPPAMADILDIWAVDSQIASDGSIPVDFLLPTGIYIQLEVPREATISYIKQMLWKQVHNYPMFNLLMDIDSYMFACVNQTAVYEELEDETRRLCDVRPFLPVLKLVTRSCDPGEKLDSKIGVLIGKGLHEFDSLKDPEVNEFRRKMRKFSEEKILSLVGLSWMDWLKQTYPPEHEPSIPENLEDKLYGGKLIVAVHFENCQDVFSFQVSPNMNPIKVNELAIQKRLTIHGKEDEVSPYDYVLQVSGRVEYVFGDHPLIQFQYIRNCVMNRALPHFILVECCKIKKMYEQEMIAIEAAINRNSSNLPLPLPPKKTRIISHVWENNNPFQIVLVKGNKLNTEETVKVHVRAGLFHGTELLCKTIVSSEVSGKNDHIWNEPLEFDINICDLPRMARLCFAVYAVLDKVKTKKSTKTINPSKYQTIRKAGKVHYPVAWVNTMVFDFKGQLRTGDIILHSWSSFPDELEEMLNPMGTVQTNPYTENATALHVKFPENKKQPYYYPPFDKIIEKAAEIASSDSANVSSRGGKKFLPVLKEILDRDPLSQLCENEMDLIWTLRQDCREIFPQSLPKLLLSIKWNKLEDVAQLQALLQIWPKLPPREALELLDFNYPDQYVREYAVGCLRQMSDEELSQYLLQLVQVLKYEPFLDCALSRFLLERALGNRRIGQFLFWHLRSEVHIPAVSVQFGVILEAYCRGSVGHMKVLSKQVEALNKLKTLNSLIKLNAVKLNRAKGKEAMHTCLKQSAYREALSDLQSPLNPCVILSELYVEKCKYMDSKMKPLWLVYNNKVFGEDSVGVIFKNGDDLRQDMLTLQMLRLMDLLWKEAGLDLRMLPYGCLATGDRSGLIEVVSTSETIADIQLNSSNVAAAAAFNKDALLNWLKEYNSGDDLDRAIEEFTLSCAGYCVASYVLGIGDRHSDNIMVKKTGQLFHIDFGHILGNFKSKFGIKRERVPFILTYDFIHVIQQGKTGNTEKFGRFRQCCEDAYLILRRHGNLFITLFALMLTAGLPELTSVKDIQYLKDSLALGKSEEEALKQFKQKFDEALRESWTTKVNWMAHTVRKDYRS
- Sequence (P27986 whole entry partner): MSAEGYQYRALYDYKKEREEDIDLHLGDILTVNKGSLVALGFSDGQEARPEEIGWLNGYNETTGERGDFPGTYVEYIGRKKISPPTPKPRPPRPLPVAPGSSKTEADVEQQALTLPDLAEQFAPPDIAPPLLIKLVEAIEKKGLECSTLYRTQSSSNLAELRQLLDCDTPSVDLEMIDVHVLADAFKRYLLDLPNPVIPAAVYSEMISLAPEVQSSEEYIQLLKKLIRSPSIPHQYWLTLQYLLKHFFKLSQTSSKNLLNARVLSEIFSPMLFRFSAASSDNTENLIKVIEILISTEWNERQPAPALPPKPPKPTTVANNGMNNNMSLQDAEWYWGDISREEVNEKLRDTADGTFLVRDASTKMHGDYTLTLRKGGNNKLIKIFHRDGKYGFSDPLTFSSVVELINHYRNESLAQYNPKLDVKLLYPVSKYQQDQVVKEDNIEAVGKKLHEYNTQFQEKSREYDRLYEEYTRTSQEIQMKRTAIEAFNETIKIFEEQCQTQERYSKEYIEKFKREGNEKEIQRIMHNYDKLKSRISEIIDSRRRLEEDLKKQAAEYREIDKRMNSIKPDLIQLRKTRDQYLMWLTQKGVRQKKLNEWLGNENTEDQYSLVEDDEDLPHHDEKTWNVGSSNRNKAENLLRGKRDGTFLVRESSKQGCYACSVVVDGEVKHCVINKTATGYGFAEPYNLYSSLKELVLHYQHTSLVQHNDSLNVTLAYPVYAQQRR
- procedure summary: kinase selectivity panel
- Type: biochemical
- assay context: read-out: percentage of control activity (POC), PI3K (p110b/p85a)
property label: remaining activity at 10 µM
Could you kindly put the unit after your number?

In: For Cn1cc(-c2cccc(-c3nc(C(=O)NC4C5CC6CC4CC(O)(C6)C5)c(N)nc3N)c2)cn1 (centres unmarked) [compound 4] , what is its reported remaining activity at 10 µM?
Out: 71%

In: Quick one: remaining activity at 10 µM for CC(C)(C)N1CCC(c2cc(-c3ccc(F)cc3Cl)c3cc[n+]([O-])c(-c4c(Cl)cccc4Cl)c3n2)CC1 [compound 2] ?
Out: 92%

In: Record request: remaining activity at 10 µM value, item Cc1ccc(C(=O)NCC2CC2)cc1-c1ccc2c(c1)NC(=O)C21CCCC1 [compound 3]
Out: 86%

In: Return reported remaining activity at 10 µM; argument: COc1c(NC(=O)c2ccc(C)c(-c3nnc4c(NCC(C)(C)C)nccn34)c2)cc(C(C)(C)C)cc1NS(C)(=O)=O [compound 7, reference compound]
Out: 87%

In: For CS(=O)(=O)N1CCN(c2ccc(Nc3ncc(C(N)=O)c(NC4CC4)n3)cc2)CC1 [compound 5] , what is its reported remaining activity at 10 µM?
Out: 93%

====

- target under test: PI3K (p120g) (Homo sapiens)
- Construct: Eurofins Pharma Discovery Services (contract assay service)
- Sequence (P48736 whole entry): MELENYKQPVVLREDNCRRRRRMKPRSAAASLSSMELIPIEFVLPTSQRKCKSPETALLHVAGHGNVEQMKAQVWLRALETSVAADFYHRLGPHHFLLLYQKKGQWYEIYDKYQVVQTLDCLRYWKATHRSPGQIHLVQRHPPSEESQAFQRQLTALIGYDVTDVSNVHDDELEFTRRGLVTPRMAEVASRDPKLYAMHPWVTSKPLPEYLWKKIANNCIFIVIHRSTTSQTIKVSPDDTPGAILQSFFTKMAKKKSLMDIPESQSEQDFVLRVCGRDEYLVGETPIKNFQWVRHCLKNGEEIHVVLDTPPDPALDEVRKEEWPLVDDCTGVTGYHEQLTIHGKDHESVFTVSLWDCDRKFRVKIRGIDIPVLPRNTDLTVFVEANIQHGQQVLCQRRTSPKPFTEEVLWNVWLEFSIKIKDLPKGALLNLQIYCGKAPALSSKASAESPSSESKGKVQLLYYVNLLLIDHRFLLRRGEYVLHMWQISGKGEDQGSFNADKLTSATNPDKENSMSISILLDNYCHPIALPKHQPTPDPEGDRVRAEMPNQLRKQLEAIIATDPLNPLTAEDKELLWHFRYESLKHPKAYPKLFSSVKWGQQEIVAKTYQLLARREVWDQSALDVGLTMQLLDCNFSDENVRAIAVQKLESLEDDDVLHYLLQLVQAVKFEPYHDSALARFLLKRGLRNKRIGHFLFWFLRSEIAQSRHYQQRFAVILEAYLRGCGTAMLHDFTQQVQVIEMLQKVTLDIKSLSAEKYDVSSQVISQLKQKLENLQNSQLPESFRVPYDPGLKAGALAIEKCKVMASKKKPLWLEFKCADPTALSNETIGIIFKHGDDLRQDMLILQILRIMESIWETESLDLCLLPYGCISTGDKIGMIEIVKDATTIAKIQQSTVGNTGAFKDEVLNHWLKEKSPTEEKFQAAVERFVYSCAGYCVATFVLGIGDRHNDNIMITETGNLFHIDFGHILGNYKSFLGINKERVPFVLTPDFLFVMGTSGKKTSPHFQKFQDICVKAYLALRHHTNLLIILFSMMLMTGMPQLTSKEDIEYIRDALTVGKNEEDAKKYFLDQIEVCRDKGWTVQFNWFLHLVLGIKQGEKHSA
- procedure summary: kinase selectivity panel
- Format: biochemical
- assay context: biochemical dose response, duplicate; read-out: Inhibition of indicated activity (IC50, μM): PI3K (p120γ)
property label: IC50 (µM)
Write the value in µM as a bare number.

In: Fill in: IC50 of Cn1cc(-c2cccc(-c3nc(C(=O)NC4C5CC6CC4CC(O)(C6)C5)c(N)nc3N)c2)cn1 (stereo not shown) [compound 4] is ___
Out: 4.78

====

- target under test: Hck (Homo sapiens, UniProt P08631)
- Construct: Eurofins Pharma Discovery Services (contract assay service)
- Sequence (P08631 whole entry, species assumed): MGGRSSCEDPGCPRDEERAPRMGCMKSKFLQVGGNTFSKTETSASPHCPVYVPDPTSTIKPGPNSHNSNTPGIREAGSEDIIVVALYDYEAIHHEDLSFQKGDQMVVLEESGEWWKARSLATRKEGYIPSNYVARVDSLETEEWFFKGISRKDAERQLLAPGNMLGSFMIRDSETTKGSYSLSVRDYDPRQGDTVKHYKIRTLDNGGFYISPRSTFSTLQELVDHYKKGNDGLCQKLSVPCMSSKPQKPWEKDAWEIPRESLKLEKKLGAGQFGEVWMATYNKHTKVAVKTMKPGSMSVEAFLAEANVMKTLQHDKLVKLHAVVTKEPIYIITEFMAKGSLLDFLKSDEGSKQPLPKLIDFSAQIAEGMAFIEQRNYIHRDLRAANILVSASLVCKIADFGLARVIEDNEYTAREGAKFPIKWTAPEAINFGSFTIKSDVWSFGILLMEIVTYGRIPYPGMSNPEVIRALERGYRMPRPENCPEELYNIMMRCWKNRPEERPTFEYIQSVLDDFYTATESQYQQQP
- procedure summary: kinase selectivity panel
- Format: biochemical
- assay context: 10 μM; read-out: percentage of control activity (POC), Hck
- Protocol: Kinase selectivity was evaluated at Eurofins Pharma Discovery Services using a selection of 125 representative kinases tested at a concentration of 10 μM in duplicate (S3 Table). IC50 values for selected activities were further characterized at 9 duplicate concentrations. DNA-PK activity was determined at the SelectScreen® Biochemical kinase Profiling Service of Thermo Fisher Scientific.
property label: remaining activity at 10 µM (%)
Express it in %; write the number only.

In: Please give the measured remaining activity at 10 µM for this molecule: Cn1cc(-c2cccc(-c3nc(C(=O)NC4C5CC6CC4CC(O)(C6)C5)c(N)nc3N)c2)cn1 (centres unmarked) [compound 4]
Out: 47

In: Could you share which remaining activity at 10 µM value was measured for CC(C)(C)N1CCC(c2cc(-c3ccc(F)cc3Cl)c3cc[n+]([O-])c(-c4c(Cl)cccc4Cl)c3n2)CC1 [compound 2] ?
Out: 84

In: Reported remaining activity at 10 µM for Cc1ccc(C(=O)NCC2CC2)cc1-c1ccc2c(c1)NC(=O)C21CCCC1 [compound 3] : what is it?
Out: 87

In: What does the record list as remaining activity at 10 µM for CS(=O)(=O)N1CCN(c2ccc(Nc3ncc(C(N)=O)c(NC4CC4)n3)cc2)CC1 [compound 5] ?
Out: 7

In: What remaining activity at 10 µM value was documented for this molecule, COc1c(NC(=O)c2ccc(C)c(-c3nnc4c(NCC(C)(C)C)nccn34)c2)cc(C(C)(C)C)cc1NS(C)(=O)=O [compound 7, reference compound] ?
Out: 84

====

Provide the recorded remaining activity at 10 µM for the entries that follow.
- target under test: PKA (Homo sapiens, UniProt P17612)
- Construct: purchased Eurofins Pharma Discovery Services (KinaseProfiler; Cerep BioPrint panel)
- procedure summary: kinase selectivity panel
- Assay type: biochemical
- assay context: read-out: percentage of control activity (POC), PKA
Numeric only. Scale: %

In: Dear colleague, I am looking for the recorded remaining activity at 10 µM of the following compound: `Cc1ccc(C(=O)NCC2CC2)cc1-c1ccc2c(c1)NC(=O)C21CCCC1`
Out: 99

In: I'd like to know its remaining activity at 10 µM. The compound in question is COc1c(NC(=O)c2ccc(C)c(-c3nnc4c(NCC(C)(C)C)nccn34)c2)cc(C(C)(C)C)cc1NS(C)(=O)=O [compound 7, reference compound]
Out: 109

In: For the compound `CS(=O)(=O)N1CCN(c2ccc(Nc3ncc(C(N)=O)c(NC4CC4)n3)cc2)CC1` , what remaining activity at 10 µM is on record?
Out: 26

In: Reported remaining activity at 10 µM, compound `CC(C)(C)N1CCC(c2cc(-c3ccc(F)cc3Cl)c3cc[n+]([O-])c(-c4c(Cl)cccc4Cl)c3n2)CC1` : ____
Out: 109

In: # get_value(readout='remaining activity at 10 µM', item= Cn1cc(-c2cccc(-c3nc(C(=O)NC4C5CC6CC4CC(O)(C6)C5)c(N)nc3N)c2)cn1 (centres unmarked) )
Out: 100

====

- target under test: p38α (Homo sapiens)
- procedure summary: enzymatic p38 activity
- Assay type: biochemical
- assay context: geometric mean; read-out: Activity in reference biochemical assay (IC50, μM) (95% CI) p38α
property label: IC50 (µM)
The figure you give is taken to be in µM; do not add the unit.

In: Field request: IC50 | item: COc1c(NC(=O)c2ccc(C)c(-c3nnc4c(NCC(C)(C)C)nccn34)c2)cc(C(C)(C)C)cc1NS(C)(=O)=O [compound 7, reference compound]
Out: 0.003
